- experimental target: Gal3S(b1-4)[Fuc(a1-3)]Glc6S
- protocol notes: glycan array binding signal (z-score within array); higher = stronger binding
- measurement conditions: glycan notation: IUPAC condensed, linker removed
Many of the other results were omitted from the sample, so the strongest signals are more common in it than they were.
Short version: glycan array binding signal (z-score) at least 3 is yes (1), less is no (0).

Item Ovorubin (Pomacea canaliculata), J7I2T6 (protein) MFVATSLLLAIATLVVRASPHNYLIMDIEPPKSVSERDILNLLSPLQVKHSFRVTGSTRLLIVIRLDAQSYEKLDEITVPGKVEVIPAVNMADTMERCGVSWPRVELTDDNVTLFESESTLTDVTKEQLKAMLIGYGEHMSGLLQAHRFEYYQAAGATPHRHFVFVNSVPDEIEVFGREGVDIWGGPGEFVVKPQYVTRI with glycan array binding signal (z-score) of 3 or above?
yes (1)

Item AT5G24760(45) (Arabidopsis thaliana), Q8LEB2 (protein) MSASSSSFEQPQVITCNAAVAWRAGEPLVMEEVEVSPPQPLEIRIKVVCTSLCRSDLSAWESQSLLPRIFGHEAAGIVESIGEGVTEFEKGDHVLAVFTGECGSCRHCISGKSNMCQVLGMERKGLMHSDQKTRFSIKGKPVYHYCAVSSFSEYTVVHSGCAVKVDPLAPLHKICLLSCGVAAGLGAAWNVADVQKGSSVVIFGLGTVGLSVAQGAKLRGAAQILGVDINPAKAEQAKTFGVTDFINSNDLSEPIPQVIKRMTGGGADFSFECVGDTGIATTALQSCSDGWGMTVTLGVPKAKPEVSAHYGLFLSGKSLKGTLFGGWKPKSDLPSLIDKYMNKEIMIDEFITHNLSFDEINKAFVLMREGKCLRCVLHMPK with glycan array binding signal (z-score) of 3 or above?
no (0)

Item LlpA (Arthrobacter sp) (protein) MGSSHHHHHHSSGLVPRGSHMTLHPETALRPGAAATSPNSRYRLLYQTDGNLVLYGPDGPLWDSGTNGHGAGACIMQADGNLVLYGPNDEYVWDTETDNNPGSRLVIQDDGNAVIYRPDGSPLWATETCQPPGSADSHVLQSGSTLTPTHGIRSANGLYGLLYQTDGNLVFYGPDGPLWDSGTNGRGAGACIMQPDGNLVLYGPHDEYVWDTETDNNPGSRLVIQDDGNAVIYRPDGNPTWVTGTH with glycan array binding signal (z-score) of 3 or above?
no (0)

Item Gal 4 (Mus musculus), P56470 (protein) MAYVPAPGYQPTYNPTLPYYQPIPGGLNVGMSVYIQGVASEHMKRFFVNFVVGQDPGSDVAFHFNPRFDGWDKVVFNTLQGGKWGSEERKRSMPFKKGAAFELVFIVLAEHYKVVVNGNPFYEYGHRLPLQMVTHLQVDGDLQLQSINFIGGQPLRPQGPPMMPPYPGPGHCHQQLNSLPTMEGPPTFNPPVPYFGRLQGGLTARRTIIIKGYVPPTGKSFAINFKVGSSGDIALHINPRMGNGTVVRNSLLNGSWGSEEKKITHNPFGPGQFFDLSIRCGLDRFKVYANGQHLFDFAHRLSAFQRVDTLEIQGDVTLSYVQI with glycan array binding signal (z-score) of 3 or above?
no (0)

Item RobpsCRA (Robinia pseudoacacia) (protein) IKGGYWYSGSGLAVSDINPSHFTHLFCAFADLDPNTNKLTISSSNAAAFSTFTQTVRAKNPSVKTLLSIGGGGGRALAAVFANMASQASRRKSFIDSSIQLARRNNFHGLDLDWEYPSSDIDKTNFASLIREWRAAVATESSTSGTPALLLSAAVGGSDQITPLKYYPGEAIANNLDWVNVMTYDLYTSDSYPTLTQPPAPLFYPRGIFSADEGITKWIQSGVPESKLALGLPFYGFKWRLSDPNNHGLFAPATQGLGAVKYKDIVNTGGQVEFDSTYVTNYCFKGTDWYGYDDTQSISAKVAYAKQRGLFGYFAWHIEQDSNWALS with glycan array binding signal (z-score) of 3 or above?
no (0)
